Quick reference for Activity (parent/mutant) among some binders
- assay system: T1, Human IL-23 (human, UniProt Q9NPF7 20-189; P29460 23-328)
- T1 construct: Heterodimer of p40 and p19; For the crystal it was secreted from insect cells from a bi-cistronic construct; also called interleukin 23; human recombinant IL-23
- T1 sequence (looked up) 1: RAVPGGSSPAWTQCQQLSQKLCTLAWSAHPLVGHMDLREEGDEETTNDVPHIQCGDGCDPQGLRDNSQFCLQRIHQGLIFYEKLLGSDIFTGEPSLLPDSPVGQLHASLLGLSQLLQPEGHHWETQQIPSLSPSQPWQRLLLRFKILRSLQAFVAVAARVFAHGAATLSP
- T1 sequence (looked up) 2: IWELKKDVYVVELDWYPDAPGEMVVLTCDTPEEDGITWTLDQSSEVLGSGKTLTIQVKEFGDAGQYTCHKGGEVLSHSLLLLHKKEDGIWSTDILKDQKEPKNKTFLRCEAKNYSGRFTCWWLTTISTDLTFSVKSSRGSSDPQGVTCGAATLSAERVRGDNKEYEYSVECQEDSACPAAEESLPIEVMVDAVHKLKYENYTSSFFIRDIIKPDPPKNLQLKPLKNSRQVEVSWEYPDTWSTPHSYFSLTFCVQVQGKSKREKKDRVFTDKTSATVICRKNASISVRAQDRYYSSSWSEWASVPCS
- method description: competitive ELISA, ratio of IC50 against parent 1454B08

binder	Activity (parent/mutant)
1454B08 V45→N (designed binder, Point variant of 1454B08) MGVSDVPRDLEVVAATPTSLLISWEHDYPYRRYYRITYGETGGNSPNQEFTVPKDVDTATISGLKPGVDYTITVYAVTSSYKYDMQYSPISINYRTEIDKPSQHHHHHH	1.8
1454B08 Y28→A (designed binder, Point variant of 1454B08) MGVSDVPRDLEVVAATPTSLLISWEHDYPARRYYRITYGETGGNSPVQEFTVPKDVDTATISGLKPGVDYTITVYAVTSSYKYDMQYSPISINYRTEIDKPSQHHHHHH	0.08
1454B08 V75→K (designed binder, Point variant of 1454B08) MGVSDVPRDLEVVAATPTSLLISWEHDYPYRRYYRITYGETGGNSPVQEFTVPKDVDTATISGLKPGVDYTITVYAKTSSYKYDMQYSPISINYRTEIDKPSQHHHHHH	0.2
1454B08 Y73→N (designed binder, Point variant of 1454B08) MGVSDVPRDLEVVAATPTSLLISWEHDYPYRRYYRITYGETGGNSPVQEFTVPKDVDTATISGLKPGVDYTITVNAVTSSYKYDMQYSPISINYRTEIDKPSQHHHHHH	0.8
1454B08 V45→Q (designed binder, Point variant of 1454B08) MGVSDVPRDLEVVAATPTSLLISWEHDYPYRRYYRITYGETGGNSPQQEFTVPKDVDTATISGLKPGVDYTITVYAVTSSYKYDMQYSPISINYRTEIDKPSQHHHHHH	2.9
1454B08 T35→N (designed binder, Point variant of 1454B08) MGVSDVPRDLEVVAATPTSLLISWEHDYPYRRYYRINYGETGGNSPVQEFTVPKDVDTATISGLKPGVDYTITVYAVTSSYKYDMQYSPISINYRTEIDKPSQHHHHHH	0.6
1454B08 T35→D (designed binder, Point variant of 1454B08; also called Thr35→Asp) MGVSDVPRDLEVVAATPTSLLISWEHDYPYRRYYRIDYGETGGNSPVQEFTVPKDVDTATISGLKPGVDYTITVYAVTSSYKYDMQYSPISINYRTEIDKPSQHHHHHH	0.02
